Ref: the array DNA melting data of Ke et al. (doi:10.1101/2024.01.08.574731)

- protocol-description: melting temperature; fluorescence melt of hairpins on a sequencing array, two-state fit, raised by 9.35 °C to match UV melts
- assay-setup: sodium 0.088 M
metric: Tm (°C)

                   macromolecule_sequence  reading_unit  measured_value
 0      GATCGTTCGAACGATC ((((((....))))))            °C            56.6
 1          GCTGTGAAAACAGC (((((....)))))            °C            63.3
 2  GACTGCGAAAGCACGGTC ((((((....)))..)))            °C            42.4
 3        GATCTCTCTGAGATC ((((((...))))))            °C            55.4
 4  CGTCTGCGGAAACGCACG (((..(((....))))))            °C            38.7
 5  GTTACGGGAAACCATAAC ((((.((....)).))))            °C              30
 6  GCTTCTGGAAACGGAAGC (((((.(....).)))))            °C            51.6
 7  GAGCCACGAAAGTGTCTC (((.(((....))).)))            °C              50
 8  GTGCCGGGAAACCGGCGC (.(((((....))))).)            °C            67.3
 9  GAGAGTGGAAACATTCTC ((((.((....)).))))            °C            38.5
10  GACAGGGCGAAAGCCGTC (((..(((....))))))            °C            49.6
11  GGATAACGAAAGTTCTCC (((.(((....))).)))            °C            41.3
12  GGTCCTCGAAAGAGAACC (((.(((....))).)))            °C            46.8
13  GGCGTTGGAAACGATGCC (((.(.(....).).)))            °C              48
14  GAACCCGAAAGGGCTTTC ((((((....)))..)))            °C            33.8
15  GCATGCCGAAAGGCCTGC (((.(((....))).)))            °C            55.9
16  GCGGAAACGAAAGTTCGC (((..(((....))))))            °C            48.8
17  GTCTTCGAAAGAAGCGAC ((((((....)))..)))            °C            44.7
18  GGTGGGACGAAAGTCACC (((..(((....))))))            °C              47
19  GCTGAGCGAAAGCTCTGC ((.((((....)))).))            °C            66.4
20      GCGAGAGAAATCTCGC ((((((....))))))            °C            66.8
21  GCGCTGCGAAAGCACGGC ((..(((....)))..))            °C            51.5
22              GCGTAACGACGC ((((....))))            °C            51.4
23      GTATCTGAAAAGATAC ((((((....))))))            °C            49.2
24  GCTAGGCGAAAGCTAAGC (((..((....))..)))            °C            48.7
25      GATCGGCGGCCCGATC ((((((....))))))            °C            55.5
26  GCTCGGGGAAACTCGAGC (((((.(....).)))))            °C            58.5
27      GATCACATTTGTGATC ((((((....))))))            °C            59.3
28      GATCCTTTGCAGGATC ((((((....))))))            °C              52
29  GTTTCCGGAAACGGAAAC (((((((....)))))))            °C            64.6
30      GATCTTCTAGAAGATC ((((((....))))))            °C            49.6
31  GATGAGGGAAACCTTGTC ((..(((....)))..))            °C            28.1
32  GAAGCTGGAAACAGTTTC (((.(((....))).)))            °C            41.6
33              GCGGGGCGCCGC ((((....))))            °C            66.1
34  GGTGTAACGAAAGTTACC (((..(((....))))))            °C            42.9
35  GCTGCCGAAAGGCTTAGC ((((((....)))..)))            °C            45.2
36      GATCTTCGCAAAGATC ((((((....))))))            °C            45.5
37  GAGGCCGCGAAAGCGCTC (((..(((....))))))            °C              35
38  GTCGAGTCGAAAGACGAC (((..(((....))))))            °C              47
39    GGAACACGAAAGTGTCC (((.(((....))))))            °C              52
40  GCCGCAGGAAACCACGGC ((((..(....)..))))            °C            42.1
41      GATCGGAATCCCGATC ((((((....))))))            °C            53.9
42  CGTTCCGGAAACGGTACG (((.(((....))).)))            °C              50
43    GTGAGCGAAAGCTTCAC ((((((....))).)))            °C            50.9

###

- protocol-description: melting temperature; fluorescence melt of hairpins on a sequencing array, two-state fit, raised by 9.35 °C to match UV melts
- assay-setup: sodium 0.088 M
In this section, each of the sequences is paired with its reported Tm.
metric: Tm (°C)

>>> print(df.to_string())
                   macromolecule_sequence  reading_unit  measured_value
 0    CGGCCGGAAACGGGCCG ((((((....))).)))            °C            66.9
 1  GTCGGTGGAAACACCGGC (.(((((....))))).)            °C            63.2
 2    GGACTGCGAAAGCATCC (((.(((....))))))            °C            41.8
 3    GATCAGCGAAAGCTATC (((.(((....))))))            °C            32.6
 4      GATCGCAGTCGCGATC ((((((....))))))            °C            68.5
 5      GATCCCCTCGGGGATC ((((((....))))))            °C            67.6
 6  GCTTACGAAAGTAACAGC ((((((....)))..)))            °C              37
 7  GGGCTTGGAAACGAGCCC (((((.(....).)))))            °C            59.2
 8      GATCATGTTAATGATC ((((((....))))))            °C            56.2
 9        GATCTGCCCCAGATC ((((((...))))))            °C            49.2
10  GGCAGAGGAAACTCTGTC (.(((((....))))).)            °C            49.7
11  GCTGGGGGAAACCCCGGC ((.((((....)))).))            °C            65.5
12          GCTGAGAAATCAGC (((((....)))))            °C            53.2
13      GATCCAGGATTGGATC ((((((....))))))            °C            55.1
14  GACCACGGAAACGTAGCC (.(.(((....))).).)            °C            23.6
15    GGTATCGAAAGATAACC ((((((....))).)))            °C            40.8
16              GCGTACGTACGC ((((....))))            °C            55.3
17  GCCTTCTCGAAAGAGGGC (((..(((....))))))            °C            44.3
18  GCGGAGCGAAAGCCCTGC ((.(.((....)).).))            °C            43.7
19  GCACCGCGAAAGCATTGC (((..((....))..)))            °C            33.4
20        GATCCGCGCCGGATC ((((((...))))))            °C              60
21  GATTGCGAAAGCACAATC ((((((....)))..)))            °C            32.7
22  GCGAATGGAAACACTCGC ((((.((....)).))))            °C            46.2
23  GACAAGGGAAACCTCGTC (((.(((....))).)))            °C            34.5
24  GGCAACGAAAGTTGTGCC ((((((....)))..)))            °C            51.2
25  GGTGTGGGAAACCGCATC (.((.((....)).)).)            °C            41.9
26  GGCCAGGGAAACTTGGCC (((((.(....).)))))            °C              57
27  GCCAGGCGAAAGCTTAGC ((.(.((....)).).))            °C            32.3
28      GATCCGAAGACGGATC ((((((....))))))            °C            54.7
29  GCAAGAGGAAACTCTTGC (((((((....)))))))            °C            64.9
30  GGTTAATCGAAAGATACC (((..(((....))))))            °C            29.2
31      GATCATACTCATGATC ((((((....))))))            °C            46.7
32  CGTCCCGGAAACGGTACG (((.(((....))).)))            °C            47.2
33  GTAAACACGAAAGTGTAC (((..(((....))))))            °C            31.2
34      GATCGCTACTGCGATC ((((((....))))))            °C            68.5
35  GTGGTAGGAAACTGTCAC (((..((....))..)))            °C            32.9
36  GACCTCGCGAAAGCGGTC (((..(((....))))))            °C            42.3
37      GATCGTGTGCACGATC ((((((....))))))            °C            59.9
38      GATCCCATGAGGGATC ((((((....))))))            °C            61.4
39  GCCTGGGCGAAAGCCGGC (((..(((....))))))            °C            55.2
40      GATCCCATATGGGATC ((((((....))))))            °C            61.8
41              GCGATCCTTCGC ((((....))))            °C            53.7
42  GCCACTGGAAACAGCGGC (((.(((....))).)))            °C            52.9
43  GAATGAGGAAACTCATCC (.(((((....))))).)            °C            29.9
44  GCAAGGGGAAACCCTCGC ((.((((....)))).))            °C              45
45  GGCTACGAAAGTACTGCC ((((((....)))..)))            °C            39.6
